Tested on: KB
Test: Antiproliferative activity against human KB cells after 72 hrs by MTT assay
Format: functional, cell-based
pIC50: −log10 of the molar value.
Below, each entry is listed alongside its reported pIC50.
endpoint-name: pIC50

INSERT INTO measurements (chemical_smiles, endpoint_name, reported) VALUES
  ('COc1ccccc1Oc1nc2c(c(C)nc3ccccc32)c(=O)n1-c1ccccc1', 'pIC50', '< 4.30'),
  ('Cc1nc2ccccc2c2nc3n(-c4ccccc4)cnn3c(=O)c12', 'pIC50', '< 4.30'),
  ('COc1ccccc1Oc1nc2c(c(C)nc3ccccc32)c(=O)n1-c1ccc(Cl)cc1', 'pIC50', 4.41),
  ('O=c1[nH]cc(F)c(=O)[nH]1', 'pIC50', 5.01),
  ('Cc1nc2ccccc2c2nc(Oc3cccc4ccccc34)n(-c3ccc(Cl)cc3)c(=O)c12', 'pIC50', 4.47),
  ('Cc1nc2ccccc2c2ncn(CC(C)C)c(=O)c12', 'pIC50', '< 4.30'),
  ('Cc1nc2ccccc2c2ncn(C(C)C)c(=O)c12', 'pIC50', '< 4.30'),
  ('Cc1nc2ccccc2c2ncn(Cc3ccccc3)c(=O)c12', 'pIC50', '< 4.30'),
  ('Cc1nc2ccccc2c2ncn(CCc3ccccc3)c(=O)c12', 'pIC50', '< 4.30'),
  ('CCCn1cnc2c(c(C)nc3ccccc32)c1=O', 'pIC50', '< 4.30'),
  ('Cc1nc2ccccc2c2nc(NC(C)(C)C)n(-c3ccccc3)c(=O)c12', 'pIC50', '< 4.30'),
  ('Cc1nc2ccccc2c2nc(Oc3ccc(Br)cc3)n(-c3ccc(Cl)cc3)c(=O)c12', 'pIC50', 4.53),
  ('Cc1nc2ccccc2c2nc(Oc3ccccc3Cl)n(-c3ccc(F)cc3)c(=O)c12', 'pIC50', '< 4.30'),
  ('Cc1nc2ccccc2c2nc(Oc3ccc4c(c3)OCO4)n(-c3ccc(Cl)cc3)c(=O)c12', 'pIC50', 4.51);

###

System: MGC-803
Assay: Antiproliferative activity against human MGC803 cells after 72 hrs by MTT assay
Type: functional, cell-based
Conditions: MGC-803, 72 h
pIC50: −log10 of the molar value.
Each record here notes measured pIC50.
endpoint-name: pIC50

INSERT INTO measurements (compound, reported) VALUES
  ('CCC(C)n1cnc2c(c(C)nc3ccccc32)c1=O (stereo not given)', '< 4.30'),
  ('Cc1nc2ccccc2c2ncn(C(C)C)c(=O)c12', '< 4.30'),
  ('Cc1cc(Oc2nc3c(c(C)nc4ccccc43)c(=O)n2-c2ccc(F)cc2)ccc1Cl', 4.38),
  ('Cc1nc2ccccc2c2nc3n(-c4ccccc4)cnn3c(=O)c12', '< 4.30'),
  ('O=c1[nH]cc(F)c(=O)[nH]1 [FLUOROURACIL]', 4.78),
  ('Cc1nc2ccccc2c2ncn(CCc3ccccc3)c(=O)c12', '< 4.30'),
  ('Cc1nc2ccccc2c2ncn(CCO)c(=O)c12', '< 4.30'),
  ('CCn1cnc2c(c(C)nc3ccccc32)c1=O', '< 4.30'),
  ('COc1ccccc1Oc1nc2c(c(C)nc3ccccc32)c(=O)n1-c1ccccc1', '< 4.30'),
  ('Cc1nc2ccccc2c2nc(Oc3ccc4c(c3)OCO4)n(-c3ccc(Cl)cc3)c(=O)c12', '< 4.30'),
  ('Cc1nc2ccccc2c2nc(Oc3ccc(Cl)cc3Cl)n(-c3ccccc3)c(=O)c12', '< 4.30'),
  ('Cc1nc2ccccc2c2nc(NC(C)(C)C)n(-c3ccccc3)c(=O)c12', '< 4.30'),
  ('Cc1nc2ccccc2c2ncn(CC(C)C)c(=O)c12', '< 4.30'),
  ('Cc1nc2ccccc2c2nc(Oc3ccc([N+](=O)[O-])cc3Cl)n(-c3ccc(Cl)cc3)c(=O)c12', 5.32),
  ('Cc1nc2ccccc2c2ncn(N)c(=O)c12', '< 4.30'),
  ('Cc1nc2ccccc2c2ncn(CCN)c(=O)c12', 4.40),
  ('Cc1nc2ccccc2c2nc(Oc3cccc4ccccc34)n(-c3ccc(Cl)cc3)c(=O)c12', 4.73),
  ('CCCCn1cnc2c(c(C)nc3ccccc32)c1=O', '< 4.30'),
  ('Cc1nc2ccccc2c2nc(Nc3ccccc3)n(N)c(=O)c12', 4.83),
  ('CCCn1cnc2c(c(C)nc3ccccc32)c1=O', '< 4.30'),
  ('COc1ccccc1Oc1nc2c(c(C)nc3ccccc32)c(=O)n1-c1ccc(Cl)cc1', '< 4.30'),
  ('Cc1nc2ccccc2c2nc(Oc3ccccc3Cl)n(-c3ccc(F)cc3)c(=O)c12', '< 4.30'),
  ('Cc1nc2ccccc2c2nc(Nc3ccc(Cl)cc3)n(N)c(=O)c12', '< 4.30'),
  ('Cc1nc2ccccc2c2ncn(Cc3ccccc3)c(=O)c12', '< 4.30'),
  ('Cc1nc2ccccc2c2nc(Oc3ccc(Br)cc3)n(-c3ccc(Cl)cc3)c(=O)c12', 4.82);
